Tested on: NCI/ADR-RES ovarian
Assay: NCI-60 one-dose screen, 48 h (100 = growth as untreated, 0 = no growth, -100 = all killed)
Conditions: 10 µM
Protocol: Growth inhibition of the NCI/ADR-RES human […] tumor cell line is measured as a screen for anti-cancer activity. Cells are grown in 96 well plates and exposed to the test compound for 48 hours. Compounds are tested at a single concentration, which is 10^-5 M for most compounds. The reported endpoint is percent growth (GI% or GIPRCNT), where numbers from 0 - 100% represent growth inhibition, and numbers from -100% - 0 represent cell death. For example, a value of 40 represents 60% growth inhibition. […]
About 83,000 compounds went through this panel and 20% of them were active in at least one assay; those are over-represented in the sample as a whole.
Class true: growth at least 90%. Class false: growth below 90%.

Previously resolved entries follow.
{"columns": ["STRUCTURE", "TARGET OR TEST SYSTEM", "LABEL CLASS"],
 "data": [
  ["COc1cc(/C=C/c2cc(/C=C/c3ccc(O)c(OC)c3)n(C(=O)Nc3ccc(C)cc3)n2)ccc1O", "NCI/ADR-RES ovarian", "false"],
  ["CC(=O)Nc1cc2c(cc1Cl)Cc1cc(Cl)ccc1-2", "NCI/ADR-RES ovarian", "true"],
  ["COc1ccc(-c2cc(-c3ccccc3)nc(SCCCCCCC(=O)NO)n2)cc1", "NCI/ADR-RES ovarian", "false"]
]}

Q: Determine whether this compound has growth no lower than 90%: N#Cc1ccc(C(=O)CSc2nccc(Nc3ccc(C(=O)O)cc3)n2)cc1
A: true

---

System: DU-145 prostate
Test: NCI-60 one-dose screen, 48 h
Details: 10 µM
The panel holds about 83,000 compounds, 20% with a hit somewhere; the sample as a whole holds those more often. Activity calls are given as the source filed them. Rule for the calls: active = growth percent below 10; inactive = the rest.
Outcomes you can answer with include only these: t for active, f for inactive

Use the examples below as a reference point.
{"columns": ["MOLECULE", "LABEL CLASS"],
 "data": [
  ["O=[N+]([O-])c1cc(Cl)cc(Cl)c1O", "f"],
  ["O=C(Nc1ccc(OS(=O)(=O)c2ccccc2)cc1)C1CCCCC1", "f"],
  ["CCCCN1C(=O)CC(SC2CC(=O)N(CCCC)C2=O)C1=O (stereo not given)", "f"],
  ["O=C1/C=C/[C@@H](O)[C@@H]2C[C@@H](O)C[C@H]2/C=C/CCC[C@H](CCc2ccc(NC(=S)Nc3ccc4c(c3)C(=O)OC43c4ccc(O)cc4Oc4cc(O)ccc43)cc2)O1", "f"],
  ["CS(=O)(=O)c1nccc(-c2c(-c3cccc(OCc4ccccc4)c3)nc3sccn23)n1", "t"],
  ["O=C(Nc1ccc(NS(=O)(=O)c2ccc(F)cc2)cc1)C12CC3CC(CC(C3)C1)C2", "f"]
]}

Q: Field: outcome | Entry: CC[N+](CC)=c1ccc2nc3c(cc(NCc4ccccc4)c4ccccc43)oc-2c1
A: t

Q: Kindly provide the recorded test outcome for the following molecule: COc1cc(Cc2cc(-c3ccccc3)n[nH]c2=O)cc(OC)c1OC
A: f

Q: Would you mind telling me which call this test gave COc1cc(-c2nn(-c3cccc(NC(=O)NCCNS(=O)(=O)c4ccc(Cl)cc4)c3)cc2-c2ccncc2)ccc1Cl ?
A: f

Q: // param item: O=C(CCCNC(=O)c1nc(-c2ccccc2)n(-c2ccccc2)n1)NO ; yields the recorded call
A: f

Q: What is the recorded call for this molecule in the test? Cn1cnc([N+](=O)[O-])c1/C=C1\Oc2ccc(Br)cc2C1=O
A: f

Q: Hey, what did the test say about COc1cc(-c2nn(-c3cccc(NC(=O)NCCNC(=O)c4ccccc4)c3)cc2-c2ccncc2)ccc1Cl ?
A: f

Q: Answer briefly: the call reported for COc1ccc(/C=C/C(=O)C(=O)/C=C/c2ccc(OC)c(OC)c2)cc1OC in this assay.
A: f

Q: Hey, what did the test say about O=C1Cc2cc(CCN3CCN(c4nsc5ccccc45)CC3)c(Cl)cc2N1 ?
A: f

Q: Test call, this molecule: CCCN1CN2C(=O)N3CN(CCC)CN4C(=S)N(C1)C2C34 (stereo not given)
A: f

Q: What call does the record list for CCNCC(=O)Nc1ccc(C(=O)OCC)cc1 ?
A: f

Q: Dear all, I need the recorded test outcome for CC(C)(C)OC(=O)CN1CCc2c(sc3ncnc(N/N=C/c4ccccc4Br)c23)C1 , thank you.
A: f

Q: Look up the recorded call for CC1OC2CC(=O)OC2C2=C1C(=O)c1c(O)c3c(c(O)c1C2=O)C1CC(O)C3(O)C(C)O1 (stereo not given) in this test.
A: t

Q: Assay result, entry O=C(CNc1nnc(-c2cccnc2SCc2ccccc2)s1)Nc1nc(Cl)cc(Cl)n1 — outcome?
A: f

Q: Assay outcome for CSc1ccc(-c2cc(-c3ccc(NC(=O)CCCN4CCCC4)cc3)nc(-c3ccc(NC(=O)CCCN4CCCC4)cc3)c2)cc1 : what was it?
A: f

Q: Status in this test for CSc1nc(S(C)(=O)=O)nc2[nH]c(=O)[nH]c12 ?
A: f

Q: What classification did CC1CCCC(C(=O)O)C1C(=O)O (stereo not given) end up with in this test?
A: f
